These data points were gathered from patent US20250205198A1.

assay: Plasma pharmacokinetics after 20-minute snout-only inhalation (nebulized aerosol) co-administration of DMT and DMT-d10 to male rats (Group 6); conditions: male, Sprague Dawley, rat, plasma, inhaled or intranasal, 15.5 mg/kg
Measurement Type: half-life (h)
Value expressed in h; do not type the unit.

get_value(item= [2H]C([2H])([2H])N(C([2H])([2H])[2H])C([2H])([2H])C([2H])([2H])c1c[nH]c2ccccc12 , readout=half-life) returns 5.42

====

assay: Plasma pharmacokinetics after oral gavage co-administration of DMT and DMT-d10 to male rats (Group 2); settings: male, Sprague Dawley, rat, plasma, po, 10 mg/kg, AUC0-1, summary table, oral 10 mg/kg
Measurement Type: AUC(0-t)
Note: a bare number is incomplete; add the unit.

// field: AUC(0-t); key: CN(C)CCc1c[nH]c2ccccc12 [DMT, N,N-dimethyltryptamine, reference compound] ; value = 0.0152 µg·h/mL
